# measurement-target: Human CD40 (human, UniProt P25942 21-277)
# Sequence (P25942 21-277 limits assumed): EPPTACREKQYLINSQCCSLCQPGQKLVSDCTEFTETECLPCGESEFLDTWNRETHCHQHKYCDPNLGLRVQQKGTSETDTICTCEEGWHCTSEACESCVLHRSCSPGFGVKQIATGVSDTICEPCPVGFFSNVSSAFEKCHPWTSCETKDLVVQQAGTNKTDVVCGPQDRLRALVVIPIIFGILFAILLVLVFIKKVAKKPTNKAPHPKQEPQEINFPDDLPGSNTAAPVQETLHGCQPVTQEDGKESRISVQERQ
# test-summary: cell-based or functional assay
Recorded Antagonist: Jurkat/Reporter assay (IC50 nM) values for a group of binders are listed next.
Respond numerically; units are nM and should not be typed.

binder	assay-result
huAb1v1CDR2v9 (antibody, V domains shown) VH: EVQLVESGGGLVKPGGSLRLSCAASGFTFSDYGMNWVRQAPGKGLEWIAYISSGRQNIYYADTVKGRFTISRDNAKNSLYLQMNSLRAEDTAVYYCARSWGYFDVWGQGTTVTVSS VL: DIVMTQSPDSLAVSLGERATINCKSSQSLLNRGNQKNYLTWFQQKPGQPPKLLIYWASTRESGVPDRFSGSGSGTDFTLTISSLQAEDVAVYYCQNDYTYPLTFGQGTKLEIK	7.06

Next, consider the following binder.
Could you share which Antagonist: Jurkat/Reporter assay (IC50 nM) value was measured for huAb1v1CDR2v16 (antibody, V domains shown) VH: EVQLVESGGGLVKPGGSLRLSCAASGFTFSDYGMNWVRQAPGKGLEWIAYISSGRANIYYADTVKGRFTISRDNAKNSLYLQMNSLRAEDTAVYYCARSWGYFDVWGQGTTVTVSS VL: DIVMTQSPDSLAVSLGERATINCKSSQSLLNRGNQKNYLTWFQQKPGQPPKLLIYWASTRESGVPDRFSGSGSGTDFTLTISSLQAEDVAVYYCQNDYTYPLTFGQGTKLEIK ?
30.1
